Test system: Jurkat
Test: Inhibition of AP-1 and NF-kB-mediated transcriptional activation in Jurkat cells
Assay type: functional, cell-based, Homo sapiens
Conditions: Homo sapiens, Jurkat
Criterion: IC50 strictly less than 3000 nM. Met: class 1. Not met: class 0.

Known results for compounds:
[[record]]
substance_smiles = "CC1=CC(=O)N(Nc2ncc(C(N)=O)c(C(F)(F)F)n2)C1=O"
study_target = "Jurkat"
group_label = "class 0"

[[record]]
substance_smiles = "CCc1nc(NN2C(=O)C=C(C)C2=O)ncc1-c1ncc(-c2ccccc2)o1"
study_target = "Jurkat"
group_label = "class 1"

[[record]]
substance_smiles = "CCOC(=O)c1cnc(N)nc1C(F)(F)F"
study_target = "Jurkat"
group_label = "class 0"

[[record]]
substance_smiles = "CC1=CC(=O)N(Nc2ncc(C(=O)c3ccccc3)c(C(F)(F)F)n2)C1=O"
study_target = "Jurkat"
group_label = "class 1"

[[record]]
substance_smiles = "CCOC(=O)c1cnc(NN2C(=O)C(C)=C(C)C2=O)nc1C(F)(F)F"
study_target = "Jurkat"
group_label = "class 0"

[[record]]
substance_smiles = "CCOC(=O)c1cnc(NN2C(=O)C=C(C)C2=O)nc1-c1ccccc1"
study_target = "Jurkat"
group_label = "class 1"

[[record]]
substance_smiles = "CCOC(=O)c1cnc(N(C(=O)OCC)N2C(=O)C=C(C)C2=O)nc1C(F)(F)F"
study_target = "Jurkat"
group_label = "class 1"

[[record]]
substance_smiles = "CC(=O)c1cnc(NN2C(=O)C=C(C)C2=O)nc1C(F)(F)F"
study_target = "Jurkat"
group_label = "class 0"


Take the compound `CCOC(=O)c1cnc(N(C)N2C(=O)C=C(C)C2=O)nc1C(F)(F)F` and say whether its IC50 is less than 3000 nM.
class 1

Take the compound `CCOC(=O)c1cnc(NN2C(=O)C=C(C)C2=O)nc1-c1ccc(C)s1` and say whether its IC50 is less than 3000 nM.
class 1

Take the compound `CCc1nc(NN2C(=O)C=C(C)C2=O)ncc1-c1nnn(C)n1` and say whether its IC50 is less than 3000 nM.
class 0

Take the compound `CC1=CC(=O)N(Nc2ncc(C(=O)O)c(C(F)(F)F)n2)C1=O` and say whether its IC50 is less than 3000 nM.
class 0
